- Test system: Human Rhinovirus 14 (HRV14) in H1-HeLa cells
- assay comment: H1-HeLa HRV-CTG 384-well Assay (Ex. Y), HRV14
- Assay type: cell-based
- assay conditions: Rhinovirus B, 96 h; H1-HeLa cells, HRV14 MOI 1.0, 4 days, Celltiter-Glo; read-out: EC50 H1-HeLa_HRV14_HRV-CTG 384-well Assay (per Ex Y)
- Description: Example Y: H1-HeLa HRV-CTG 384-well Assay H1-Hela cell line (ATCC, Manassas, VA, Cat #CRL-1958) was maintained in Dulbecco's […] (DMEM) (Corning, New York, NY, Cat #15-018CM) supplemented with 10% fetal bovine serum (FBS) (Hyclone, Logan, UT, Cat #SH30071-03), and 1× Penicillin-Streptomycin-L-Glutamine (Corning, New York, NY, Cat #30-009-CI). […] Viral infection was monitored by determining viability of H1-HeLa cells as described below. […]
pEC50: −log10 of the molar value.
Label True when pEC50 is at or above 5; anything below gets False.

Some solved entries appear below for comparison.
{"columns": ["compound", "category label"],
 "data": [
  ["CC(C)[C@H](N)C(=O)OC[C@@]1(C#N)O[C@@H](c2ccc3c(N)ncnn23)[C@H](O)[C@@H]1O", "True"],
  ["CCC(CC)C(=O)OC[C@@]1(C#N)O[C@@H](c2ccc3c(N)ncnn23)[C@H](O)[C@@H]1O", "False"],
  ["N#C[C@]1(COC(=O)C2CC2)O[C@@H](c2ccc3c(N)ncnn23)[C@H](O)[C@@H]1O", "False"]
]}

Q. Does the reported pEC50 for N#C[C@]1(COC(=O)c2ccccc2)O[C@@H](c2ccc3c(N)ncnn23)[C@H](O)[C@@H]1O fall at or above the 5 mark?
A. False

----------
- Test system: Human Rhinovirus 16 (HRV16) in H1-HeLa cells
- assay comment: H1-HeLa HRV-CTG 384-well Assay (Ex. Y), HRV16
- Assay type: cell-based
- assay conditions: Rhinovirus A, 96 h; H1-HeLa cells, HRV16 MOI 0.25, 4 days, Celltiter-Glo; read-out: EC50 H1-HeLa_HRV16_HRV-CTG 384-well Assay (per Ex. Y)
observable: pEC50
Quick note: pEC50 values are minus log10 of concentrations in mol/L.

{"columns": ["compound", "tested on", "pEC50"],
 "data": [
  ["CC(C)(CF)C(=O)OC[C@@]1(C#N)O[C@@H](c2ccc3c(N)ncnn23)[C@H](O)[C@@H]1O", "Human Rhinovirus 16 (HRV16) in H1-HeLa cells", 4.64],
  ["CC[C@@H](C)C(=O)OC[C@@]1(C#N)O[C@@H](c2ccc3c(N)ncnn23)[C@H](O)[C@@H]1O", "Human Rhinovirus 16 (HRV16) in H1-HeLa cells", 5.01],
  ["CCC(C)(C)C(=O)OC[C@@]1(C#N)O[C@@H](c2ccc3c(N)ncnn23)[C@H](O)[C@@H]1O", "Human Rhinovirus 16 (HRV16) in H1-HeLa cells", 4.32],
  ["CCC(=O)OC[C@@]1(C#N)O[C@@H](c2ccc3c(N)ncnn23)[C@H](O)[C@@H]1O", "Human Rhinovirus 16 (HRV16) in H1-HeLa cells", 5.01],
  ["CC(C)(C)CCC(=O)OC[C@@]1(C#N)O[C@@H](c2ccc3c(N)ncnn23)[C@H](O)[C@@H]1O", "Human Rhinovirus 16 (HRV16) in H1-HeLa cells", 5.10]
]}

pEC50 measured on N#C[C@]1(COC(=O)CC2CCC2)O[C@@H](c2ccc3c(N)ncnn23)[C@H](O)[C@@H]1O = 5.15

----------
- assay comment: GI S9 stability (Ex. Z), rat intestinal S9
- Assay type: in vitro ADME
- assay conditions: rat intestinal S9, 1.0 mg/mL protein, 2 μM substrate, pH 7.4; read-out: GIS9 Rat T½ (per Ex. Z)
observable: half-life at 2 μM (min)
Report the value in min with no unit label.

Reported half-life at 2 μM ( N#C[C@]1(COC(=O)Cc2ccccc2)O[C@@H](c2ccc3c(N)ncnn23)[C@H](O)[C@@H]1O ) = 12

----------
- System: Human Rhinovirus 16 (HRV16) in H1-HeLa cells
- assay comment: H1-HeLa HRV-CTG 384-well Assay (Ex. Y), HRV16
- Type: cell-based
- assay conditions: Rhinovirus A, HRV16, H1-HeLa, 96 h, read-out: EC50 H1-HeLa_HRV16_HRV-CTG 384-well Assay (per Ex. Y)
observable: EC50 (µM)
Give just the numeric value; µM need not be written.

Let me check: N#C[C@]1(COC(=O)Cc2ccccc2)O[C@@H](c2ccc3c(N)ncnn23)[C@H](O)[C@@H]1O , system Human Rhinovirus 16 (HRV16) in H1-HeLa cells, measured EC50 is 8.44

----------
- Tested on: Human Rhinovirus 16 (HRV16) in H1-HeLa cells
- assay comment: H1-HeLa HRV-CTG 384-well Assay (Ex. Y), HRV16
- Format: cell-based
- assay conditions: Rhinovirus A, 96 h; H1-HeLa cells, HRV16 MOI 0.25, 4 days, Celltiter-Glo; read-out: EC50 H1-HeLa_HRV16_HRV-CTG 384-well Assay (per Ex. Y)
# Lookup of reported EC50 keyed by entry
Give the value, in units of µM, as a plain number.

{"columns": ["compound", "tested on", "EC50 [µM]"],
 "data": [
  ["N#C[C@]1(COC(=O)C2CCCCC2)O[C@@H](c2ccc3c(N)ncnn23)[C@H](O)[C@@H]1O", "Human Rhinovirus 16 (HRV16) in H1-HeLa cells", 9.23]
]}

// CC(C)(C)CC(=O)Nc1ncnn2c([C@@H]3O[C@](C#N)(COC(=O)CC(C)(C)C)[C@@H](O)[C@H]3O)ccc12 : EC50 value = 50

The recorded EC50 for CC(C)C(=O)Nc1ncnn2c([C@@H]3O[C@](C#N)(CO)[C@@H](O)[C@H]3O)ccc12 is 50

# molecule CC1(C)CC(C(=O)OC[C@@]2(C#N)O[C@@H](c3ccc4c(N)ncnn34)[C@H](O)[C@@H]2O)C1 ; its EC50 = 7.57

----------
- assay comment: GI S9 stability (Ex. Z), rat intestinal S9
- Assay type: in vitro ADME
- assay conditions: pooled intestinal S9 fractions; rat intestinal S9, 1.0 mg/mL protein, 2 μM substrate, pH 7.4; read-out: GIS9 Rat T½ (per Ex. Z)
Items are presented alongside their recorded log10 of half-life at 2 μM.
Base-10 log of half-life at 2 μM, unit min.

The following molecules have reported results that may help.
{"columns": ["molecule", "recorded measurement"],
 "data": [
  ["N#C[C@]1(COC(=O)C2CC3(CCC3)C2)O[C@@H](c2ccc3c(N)ncnn23)[C@H](O)[C@@H]1O [Compound 32]", 0.30],
  ["CC(C)(C)C(=O)OC[C@@]1(C#N)O[C@@H](c2ccc3c(N)ncnn23)[C@H](O)[C@@H]1O [Compound 10]", 1.72],
  ["CCC(C)(C)C(=O)OC[C@@]1(C#N)O[C@@H](c2ccc3c(N)ncnn23)[C@H](O)[C@@H]1O [Compound 35]", 2.09]
]}

For record N#C[C@]1(COC(=O)[C@H]2CCC(=O)O2)O[C@@H](c2ccc3c(N)ncnn23)[C@H](O)[C@@H]1O [Compound 25] the listed log10 of half-life at 2 μM is 0.70

Record N#C[C@]1(COC(=O)C2CCCC2)O[C@@H](c2ccc3c(N)ncnn23)[C@H](O)[C@@H]1O [Compound 18] , field log10 of half-life at 2 μM: 0.48

Looking up N#C[C@]1(COC(=O)c2ccccc2)O[C@@H](c2ccc3c(N)ncnn23)[C@H](O)[C@@H]1O [Compound 2] , I found its log10 of half-life at 2 μM recorded as 0.90

----------
- assay comment: GI S9 stability (Ex. Z), dog intestinal S9
- Format: in vitro ADME
- assay conditions: pooled intestinal S9 fractions; dog intestinal S9, 1.0 mg/mL protein, 2 μM substrate, pH 7.4; read-out: GIS9 DOG T½ (per Ex. Z)
Each entry below carries its recorded half-life at 2 μM.
Record the value in h, omitting the unit from your answer.

Recorded results for 5 molecules are shown here.
{"columns": ["molecule", "observable", "unit text", "recorded measurement"],
 "data": [
  ["CC(C)C(=O)OC[C@@]1(C#N)O[C@@H](c2ccc3c(N)ncnn23)[C@H](O)[C@@H]1O [Compound 1]", "half-life at 2 μM", "h", 2.02],
  ["CC(C)C(=O)Nc1ncnn2c([C@@H]3O[C@](C#N)(COC(=O)C(C)C)[C@@H](OC(=O)C(C)C)[C@H]3OC(=O)C(C)C)ccc12 [Compound 21]", "half-life at 2 μM", "h", 0.0833],
  ["CCCC(=O)OC[C@@]1(C#N)O[C@@H](c2ccc3c(N)ncnn23)[C@H](O)[C@@H]1O [Compound 6]", "half-life at 2 μM", "h", 0.633],
  ["CCC(CC)C(=O)OC[C@@]1(C#N)O[C@@H](c2ccc3c(N)ncnn23)[C@H](O)[C@@H]1O [Compound 9]", "half-life at 2 μM", "h", 8.5],
  ["CC(C)C(=O)OC[C@@]1(C#N)O[C@@H](c2ccc3c(N)ncnn23)[C@H](OC(=O)C(C)C)[C@@H]1OC(=O)C(C)C [Compound 20]", "half-life at 2 μM", "h", 0.05]
]}

Lab note: N#C[C@]1(COC(=O)c2ccccc2)O[C@@H](c2ccc3c(N)ncnn23)[C@H](O)[C@@H]1O [Compound 2] gave half-life at 2 μM of 13.2
